target: Tel-TrkA (Homo sapiens); construct: dimerization domain of Tel (ETV6) transcription factor (fusion partner, human ETV6 P41212); expressed in transfected cells; host or cells: luciferase expressing Ba/F3 murine hematopoietic progenitor cells; the other entry of the earlier key: ETV6 (P41212, Transcription factor ETV6); assay: Inhibition of proliferation of Ba/F3 cells expressing Tel-TrkA (BaF3/Tel-TrkA, luciferase/Bright Glo readout); assay type: cell-based; conditions: read-out: Ba/F3 Tel-TrkA IC 50
Sequence (P04629 510-796 limits assumed): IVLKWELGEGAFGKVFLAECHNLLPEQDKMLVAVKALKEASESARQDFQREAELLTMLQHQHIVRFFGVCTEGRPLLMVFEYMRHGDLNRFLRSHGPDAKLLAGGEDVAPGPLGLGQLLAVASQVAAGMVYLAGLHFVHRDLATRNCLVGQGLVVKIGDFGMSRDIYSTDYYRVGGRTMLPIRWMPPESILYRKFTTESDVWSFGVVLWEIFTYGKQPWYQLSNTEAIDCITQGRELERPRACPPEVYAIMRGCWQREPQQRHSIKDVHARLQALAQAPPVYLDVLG
property-name: IC50 (nM)

Some compounds with recorded IC50:
| compound | unit-tag | IC50 |
| --- | --- | --- |
| N#Cc1cc(-c2cnc3ccc(N4CCCC4c4cc(F)ccc4F)nn23)ccc1F (centres unmarked) [Table 5-Compound 1] | nM | 51 |
| O=C(c1ccc(-c2cnc3ccc(N4CCCC4c4cccc(F)c4)nn23)cn1)N1CCC(O)CC1 (centres unmarked) [Table 3-Compound 26] | nM | 1020 |
| Fc1cccc(C2CCCCN2c2ccc3ncc(-c4ccc(N5CCOCC5)nc4)n3n2)c1 (centres unmarked) [Table 3-Compound 58] | nM | 44 |
| CC1CN(Cc2cccc(-c3cnc4ccc(N5CCCC5c5cccc(F)c5)nn34)n2)CC(C)O1 (centres unmarked) [Table 3-Compound 44] | nM | 1120 |
| N#Cc1cc(-c2cnc3ccc(N4CCOCC4c4cccc(F)c4)nn23)ccc1F (centres unmarked) [Table 2-Compound 6] | nM | 58 |

1: O=C(NOCC1CC1)C1CCN(c2cccc(-c3cnc4ccc(N5CCOCC5c5cccc(F)c5)nn34)n2)CC1 (centres unmarked) [Table 7-Compound 22]
2: O=C(NCCO)C1CCN(c2cccc(-c3cnc4ccc(N5CCOCC5c5cccc(F)c5)nn34)n2)CC1 (centres unmarked) [Table 7-Compound 12]
3: Fc1cccc([C@H]2CCCN2c2ccc3ncc(-c4cccc(N5CC[C@@H](NCC(F)(F)F)C5)n4)n3n2)c1 [Table 7-Compound 217]
4: CNC1CCN(c2cc(-c3cccc(-c4cnc5ccc(N6CCCC6c6cccc(F)c6)nn45)n3)ccn2)CC1 (centres unmarked) [Table 7-Compound 249]
5: CC(C)NC(=O)CN1CCN(c2cccc(-c3cnc4ccc(N5CCCC5c5cccc(F)c5)nn34)n2)CC1 (centres unmarked) [Table 7-Compound 96]
List the 5 entries from lowest IC50 to highest IC50 value. Record the ranking as a list of labels in the requested order.
5, 2, 3, 1, 4
(5: 1 nM, 2: 6.1 nM, 3: 27 nM, 1: 43 nM, 4: 144 nM)

P: Fc1cccc(C2COCCN2c2ccc3ncc(-c4ccccn4)n3n2)c1 (centres unmarked) [Table 2-Compound 4]
Q: Fc1cccc(C2CCCN2c2ccc3ncc(-c4cccc(-c5cnc(N6CCOCC6)nc5)n4)n3n2)c1 (centres unmarked) [Table 7-Compound 54]
R: Fc1cccc(C2CCCN2c2ccc3ncc(-c4ccc5[nH]ccc5c4)n3n2)c1 (centres unmarked) [Table 3-Compound 18]
S: Fc1cccc(C2COCCN2c2ccc3ncc(-c4ccc(CN5CCOCC5)cn4)n3n2)c1 (centres unmarked) [Table 2-Compound 20]
T: O=C(NCCO)c1ccc(-c2cnc3ccc(N4CCCC4c4cccc(F)c4)nn23)cn1 (centres unmarked) [Table 3-Compound 19]
Reorder: IC50, max to min. Record the ranking as a list of labels in the requested order.
T, S, Q, R, P
(T: 1020 nM, S: 390 nM, Q: 28 nM, R: 13 nM, P: 8.6 nM)

I: OCCN1CCN(c2nccc(-c3cccc(-c4cnc5ccc(N6CCC[C@@H]6c6cccc(F)c6)nn45)n3)n2)CC1 [Table 7-Compound 82]
II: CN(C)CCNC(=O)C1CCN(c2cccc(-c3cnc4ccc(N5CCCC5c5cccc(F)c5)nn34)n2)CC1 (centres unmarked) [Table 7-Compound 115]
III: OCC1CCCN(c2cccc(-c3cnc4ccc(N5CCCC5c5cccc(F)c5)nn34)n2)C1 (centres unmarked) [Table 7-Compound 98]
Reorder: IC50, max to min. Record the ranking as a list of labels in the requested order.
II, I, III

A: C=CC1(O)CCN(c2cccc(-c3cnc4ccc(N5CCC[C@@H]5c5cccc(F)c5)nn34)n2)CC1 [Table 7-Compound 238]
B: Fc1cccc(C2COCCN2c2ccc3ncc(-c4cccc(NCCN5CCNCC5)n4)n3n2)c1 (centres unmarked) [Table 7-Compound 10]
Looking at recorded values for IC50, does A or B come in lower? Choose, then provide that item's label.
A
(A: 17 nM, B: 61 nM)
